Molecular target: METTL3 WT;METTL14 WT (Homo sapiens;Homo sapiens, UniProt Q86U44;Q9HCE5 1-580;1-456, |)
Sequence (Q86U44 whole entry, chain 1 of 2): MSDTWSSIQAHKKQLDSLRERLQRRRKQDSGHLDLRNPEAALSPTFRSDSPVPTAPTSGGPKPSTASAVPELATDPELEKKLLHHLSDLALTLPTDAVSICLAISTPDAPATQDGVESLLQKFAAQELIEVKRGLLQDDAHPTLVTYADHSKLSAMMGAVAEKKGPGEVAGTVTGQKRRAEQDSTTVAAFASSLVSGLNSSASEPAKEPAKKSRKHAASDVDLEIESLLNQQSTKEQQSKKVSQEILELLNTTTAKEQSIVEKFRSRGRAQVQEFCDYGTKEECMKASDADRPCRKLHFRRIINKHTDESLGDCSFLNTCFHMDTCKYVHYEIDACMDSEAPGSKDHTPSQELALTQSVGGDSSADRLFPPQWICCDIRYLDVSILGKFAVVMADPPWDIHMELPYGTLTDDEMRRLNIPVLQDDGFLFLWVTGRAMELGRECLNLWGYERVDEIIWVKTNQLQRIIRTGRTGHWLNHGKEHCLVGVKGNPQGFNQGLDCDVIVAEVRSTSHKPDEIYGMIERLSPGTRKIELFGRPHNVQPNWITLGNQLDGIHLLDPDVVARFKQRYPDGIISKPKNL
Sequence (Q9HCE5 whole entry, chain 2 of 2): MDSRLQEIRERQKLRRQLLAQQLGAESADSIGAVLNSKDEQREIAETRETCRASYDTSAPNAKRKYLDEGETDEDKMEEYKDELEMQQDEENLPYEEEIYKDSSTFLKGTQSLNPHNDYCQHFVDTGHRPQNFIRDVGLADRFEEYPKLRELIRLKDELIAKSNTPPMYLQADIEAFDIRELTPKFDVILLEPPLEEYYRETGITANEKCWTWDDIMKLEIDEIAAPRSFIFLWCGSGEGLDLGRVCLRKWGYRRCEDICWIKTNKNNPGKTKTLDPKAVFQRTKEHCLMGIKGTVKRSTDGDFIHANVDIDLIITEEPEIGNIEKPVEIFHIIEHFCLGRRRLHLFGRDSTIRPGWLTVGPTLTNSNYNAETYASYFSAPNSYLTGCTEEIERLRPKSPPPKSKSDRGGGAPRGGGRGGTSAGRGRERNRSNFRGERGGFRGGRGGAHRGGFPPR
Assay: SPR; 1:1 model; FP: 10 mM HEPES pH 7.5, 50 mM KCl, 5 nM RNA; SPR: 10 mM HEPES pH 7.5, 150 mM KCl, 0.05% P20, 25 C; 2-Ap: 50 mM Tris pH 8.0, 10 mM MgCl2, 0.5 uM RNA, read at 37
Settings: protein: recombinant;recombinant; tags: His-tag removed by TEV;; copies: 1;1; bulged stem-loop
Entries and their measured pKd follow.
Scale: negative log10 of molar concentration, which is what pKd denotes.

Binder: GCCUAGUAGCAGAGAGGACUGCUCCUUGGU (structured_RNA) [rNEAT2 (biotinyl)]
pKd: 6.59

Okay, next one:
Give its pKd value. Item: GCCUAGUAGCAGAGAGGACUGCUCCUUGGU (structured_RNA, m6A at position 18) [rNEAT2-m6A (biotinyl)]
6.47

Attribution: paper PMC10441475
